target: CYP3A4 (Homo sapiens); assay: In vitro CYP/CYP3A4 inhibition assay (P450-GLO Assay kit, Promega); settings: IC50 (uM), CYP3A4 inhibition, P450-GLO Assay kit, human recombinant CYP3A4
Sequence (P08684 whole entry): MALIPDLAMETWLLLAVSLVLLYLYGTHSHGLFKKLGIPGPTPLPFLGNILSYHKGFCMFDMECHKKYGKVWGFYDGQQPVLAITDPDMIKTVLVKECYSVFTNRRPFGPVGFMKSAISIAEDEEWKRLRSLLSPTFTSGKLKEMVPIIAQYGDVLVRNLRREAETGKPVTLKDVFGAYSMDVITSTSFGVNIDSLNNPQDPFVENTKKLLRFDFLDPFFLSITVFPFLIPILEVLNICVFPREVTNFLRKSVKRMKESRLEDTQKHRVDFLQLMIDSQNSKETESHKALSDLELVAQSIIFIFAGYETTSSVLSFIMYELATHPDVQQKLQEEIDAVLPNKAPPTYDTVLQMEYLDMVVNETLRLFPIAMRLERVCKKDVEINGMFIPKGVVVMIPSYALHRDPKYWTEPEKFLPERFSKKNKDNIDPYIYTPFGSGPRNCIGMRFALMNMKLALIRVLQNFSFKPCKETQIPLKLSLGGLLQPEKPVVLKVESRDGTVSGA
The molecules listed here are annotated with their IC50.

N[C@@H](Cc1c[nH]cn1)C(=O)O = > 10 µM
CCc1nc(C)c[nH]1 = > 10 µM
CC(=O)/C=C/C1=C(C)CCCC1(C)C = > 10 µM
CC(=O)n1ccnc1 = > 10 µM
CC1=N[C@H](C(=O)O)CCN1 = > 10 µM

IC50 in this record for `CC(=O)c1ccc(-n2ccnc2)cc1` : 0.8 µM

Short answer for `Cc1ncc[nH]1` : IC50 was > 10 µM

According to the records, this molecule `Clc1ccccc1-c1nc2ccccc2[nH]1` displays IC50 of > 10 µM

Entry `c1ccc2[nH]cnc2c1` — recorded IC50 = > 10 µM

Kindly note the recorded IC50 for N=C(N)c1ccc(OCCCCCCOc2ccc(C(=N)N)cc2)cc1 [Hexamidine diisethionate] , which is > 10 µM

Reported IC50 of `O=C(n1ccnc1)n1ccnc1` : > 10 µM

So for `C=Cn1ccnc1` , the logged IC50 turned out to be > 10 µM

Just so you know, measured IC50 for `Clc1ncnc2[nH]cnc12` came out at > 10 µM

###

Reported pIC50 values follow for various molecules
System: ATRA 4-hydroxylase activity (CYP) of pig liver microsomes
Assay: In vitro ATRA 4-hydroxylase (CYP) inhibition assay using pig liver microsomes
Settings: pig, 90 min
Description: Cytochrome P450 is a large and diverse group of enzymes that catalyze the oxidation of organic substances. […] Applicant evaluated the potential RAMBA activity of several azoles using pig liver microsomes, a rich source of CYP activity, comprising many different CYP 450 isoforms. […] As understanding in this area has progressed, a more specific CYP inhibition assay can be used to provide better predictivity of activity in human skin. […]
Field pIC50 (float): negative decimal logarithm of the concentration in molar.

Cc1nccn1Cc1ccccc1 [1-benzyl-2-methylimidazole] = 3.51

// next entry
pIC50 measured on c1ccc(-c2nc[nH]c2-c2ccccc2)cc1 [4,5-diphenylimidazole] = 4.00

###

biological target: CYP3A4 (Homo sapiens); test: in vitro; conditions: human, recombinant enzyme
READOUT LABEL: Hit / no hit for inhibition of CYP3A4

CC(C)(C(=O)c1cccnc1)c1cccnc1 [Metyrapone] = Hit
CC(=O)c1ccc(-n2ccnc2)cc1 [4′-(Imidazol-1yl) acetophenome] = Hit

###

biological target: CYP3A4 (Homo sapiens); assay: in vitro; conditions: human, recombinant enzyme
READOUT LABEL: IC50 (µM)
Reply numerically in µM, unit not repeated.

Note to self: IC50 recorded for `c1ccc(-n2ccnc2)cc1` was 1

Origin of the recorded values: patent US20140227208A1
